# TARGET UNDER TEST: T1, His-tagged human CD40 (h-CD40-his) recombinant protein (human, UniProt P25942 21-193)
# T1 construct: range 21-193; Bought from Acrobiosystems; also called Human CD40-his; not shown: His tag
# T1 sequence (P25942 21-193 limits assumed): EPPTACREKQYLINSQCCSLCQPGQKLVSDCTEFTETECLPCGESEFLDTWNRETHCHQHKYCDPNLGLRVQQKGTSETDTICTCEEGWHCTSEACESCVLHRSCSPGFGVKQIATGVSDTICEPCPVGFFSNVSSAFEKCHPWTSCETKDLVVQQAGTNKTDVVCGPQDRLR
# EXPERIMENT NOTES: ELISA, human CD40-his coated
QUANTITY MEASURED: EC50 (ng/mL)

human-mouse chimeric antibody 2H6-C (antibody, V domains shown, Variable regions of murine 2H6 ligated to the constant region of human antibody IgG1; made in HEK293 cells) VH: QVQLQQSGAELVRPGTSVKVSCKASGYAFSDYLIEWAKQRPGQGLEWIGVINPGSGGSNYNEKIKDRATLTADKSSSTAYMQLSSLTSEDSAVYFCARGGGGFTYWGQGTLVTVSA VL: EIQLTQTTSSLSASLGDRVTISCRASQDISNYLNWYQQKPDGTIKLLLNFASRLHSGVPSRFSGSGSGTDFFLTISNLEQDDIATYFCQQGSTLPWTFGGGTKLEIK ... 4.56
mouse hybridoma anti-human CD40 antibody 14C10 (antibody, V domains shown, Murine hybridoma antibody) VH: QVQVQQSGAELVRPGTSVKVSCKASGYAFTNYLIEWVKQRPGQGLEWIGVINPEFGGTNYNEKFKGKATLTADKSSSTAYMQLSSLTSEDSAVYFCARGGGGFTYWGQGTLVTVSA VL: HIQMTQTTSSLSASLGDRVTISCRASQDISSHLNWYQQKPDGTVKLLISYTSRLHSGVPSRFSGSGSGADYSLTISNLEQEDIATYFCQQGNTLPWTFGGGTKLEIK ... 8.81
mouse hybridoma anti-human CD40 antibody 38B4 (antibody, V domains shown, Murine hybridoma antibody) VH: QVRLKQSGAELVRPGASVKVSCKASGYTFTDYYINWVKQRPGQGLEWIAGIYPGTGNTYYNEKFKGKATLTAERSSSTAYMQLTSLTSEDSAVYFCTRRGLPSLCFDYWGQGTTLTVSS VL: DFQMTQTTSSLSASLGDRVTISCSASQGISNYLNWYQQKPDGTVKLLIYYTSSLHSGVPSRFSGSGSGTDYSLTISNLEPEDIATYYCQQYSKLPPTFGGGTKLEIK ... 12.9
